Where do the numbers come from? From ChEMBL document CHEMBL1201862.

# System tested: Ras and Rab interactor 1/Tyrosine-protein kinase ABL1 (Homo sapiens, UniProt P00519+Q13671);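 note: biochemical TR-FRET dose-response test measuring inhibition of binding between Rin1 and Abl proteins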
# Sequence (P00519 whole entry): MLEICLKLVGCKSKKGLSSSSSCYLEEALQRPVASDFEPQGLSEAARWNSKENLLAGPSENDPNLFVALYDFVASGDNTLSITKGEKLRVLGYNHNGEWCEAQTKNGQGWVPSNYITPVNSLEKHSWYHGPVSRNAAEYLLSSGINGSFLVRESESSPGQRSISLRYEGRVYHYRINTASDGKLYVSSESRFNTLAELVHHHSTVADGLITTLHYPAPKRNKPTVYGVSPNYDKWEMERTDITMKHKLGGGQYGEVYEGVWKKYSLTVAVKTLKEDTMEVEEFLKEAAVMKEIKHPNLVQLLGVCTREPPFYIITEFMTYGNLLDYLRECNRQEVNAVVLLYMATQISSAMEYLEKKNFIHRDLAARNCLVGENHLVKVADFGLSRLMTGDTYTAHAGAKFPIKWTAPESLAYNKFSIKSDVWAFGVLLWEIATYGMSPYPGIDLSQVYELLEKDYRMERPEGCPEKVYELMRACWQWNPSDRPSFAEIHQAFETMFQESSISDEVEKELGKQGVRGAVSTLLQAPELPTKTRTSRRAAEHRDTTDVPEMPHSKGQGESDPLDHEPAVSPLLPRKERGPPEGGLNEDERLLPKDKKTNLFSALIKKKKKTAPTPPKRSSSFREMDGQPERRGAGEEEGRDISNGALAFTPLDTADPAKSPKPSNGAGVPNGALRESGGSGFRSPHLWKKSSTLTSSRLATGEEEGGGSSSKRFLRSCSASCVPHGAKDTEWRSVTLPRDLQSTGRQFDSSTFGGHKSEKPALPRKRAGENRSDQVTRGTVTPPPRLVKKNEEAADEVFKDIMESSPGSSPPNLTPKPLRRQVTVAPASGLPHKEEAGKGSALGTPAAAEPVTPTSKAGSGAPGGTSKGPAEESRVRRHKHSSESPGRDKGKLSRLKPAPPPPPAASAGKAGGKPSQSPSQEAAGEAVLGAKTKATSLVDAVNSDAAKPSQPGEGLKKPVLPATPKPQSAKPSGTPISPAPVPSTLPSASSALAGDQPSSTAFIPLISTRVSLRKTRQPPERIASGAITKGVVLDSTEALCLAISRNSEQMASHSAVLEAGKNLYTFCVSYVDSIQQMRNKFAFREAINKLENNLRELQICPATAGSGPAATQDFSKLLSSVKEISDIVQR
# Sequence (Q13671 whole entry): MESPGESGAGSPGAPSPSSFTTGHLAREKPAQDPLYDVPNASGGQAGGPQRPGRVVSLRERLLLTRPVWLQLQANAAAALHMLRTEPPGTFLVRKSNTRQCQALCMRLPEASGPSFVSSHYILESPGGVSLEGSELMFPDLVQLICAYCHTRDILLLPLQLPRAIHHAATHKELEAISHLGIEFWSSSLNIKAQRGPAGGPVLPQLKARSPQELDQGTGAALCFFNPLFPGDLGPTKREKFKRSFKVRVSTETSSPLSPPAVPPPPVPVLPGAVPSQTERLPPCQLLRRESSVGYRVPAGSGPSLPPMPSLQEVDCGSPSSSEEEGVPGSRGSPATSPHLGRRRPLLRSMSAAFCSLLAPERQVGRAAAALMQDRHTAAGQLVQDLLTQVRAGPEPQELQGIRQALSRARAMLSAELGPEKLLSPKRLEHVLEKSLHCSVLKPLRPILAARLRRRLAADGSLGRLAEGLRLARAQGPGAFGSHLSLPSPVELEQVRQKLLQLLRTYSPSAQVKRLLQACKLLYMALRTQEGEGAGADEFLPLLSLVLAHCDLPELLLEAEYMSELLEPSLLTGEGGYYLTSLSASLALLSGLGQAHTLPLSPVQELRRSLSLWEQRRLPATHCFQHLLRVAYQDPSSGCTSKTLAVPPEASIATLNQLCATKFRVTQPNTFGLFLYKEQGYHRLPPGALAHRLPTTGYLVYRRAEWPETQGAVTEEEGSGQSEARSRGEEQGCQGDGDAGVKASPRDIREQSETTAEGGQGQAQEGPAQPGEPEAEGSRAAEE
# Assay type: functional
Calls of active or inactive are those of the source.
Entry note: the call must match one of true (1) (active), false (0) (inactive)

Worked cases, answers included:
> print(dat)
                    structure.smiles.string  classification
1  COc1ccc(C2c3c(nc[nH]c3=O)Oc3nc[nH]c(=O)c32)cc1        true (1)
2            COc1cc(O)c(C(C)=O)c(CC(=O)O)c1       false (0)
3  COC(=O)c1ccc(CSc2nnc(CNC(=O)COc3ccc(Cl)cc3)o2)o1       false (0)

// switching to the query compound
Data request: Test call for this compound, please: CN(C(=O)c1ccc(NC(=O)Cc2cccc(NC(=O)C3CCN(C(=O)c4ccccc4)CC3)c2)cc1)C1CC1
Data returned: false (0)

====

# Method notes: cytotoxicity toward DRD oncogenic fibroblasts, dose response, cell-based, non-viral oncogenic, luminescence (AID 1934)
# Format: functional
# Condition info: Homo sapiens
Active and inactive are the calls of the source.
Measurement name: EC50

> print(dat)
                                   compound  observed.measurement
1  COc1cccc(N2CCN(C(=O)c3ccc(C[S+]([O-])c4ccc(C)cc4)o3)CC2)c1 (centres undefined)     0.637 µM (active)
2         COc1cccc(/C=N/Nc2snc(SC)c2C#N)c1O      48.3 µM (active)
3  CCC(C)N(CC(=O)Nc1cccc(C)c1C)C(=O)CCl (centres undefined)       3.8 µM (active)

Could you now consider this next compound?
Data request: Can you share its EC50? I mean this compound: COc1ccc2nc(O)c(CN(Cc3cccs3)S(=O)(=O)c3cccc4nsnc34)cc2c1
Data returned: 14.5 µM (active)

====

# System tested: Peroxisome proliferator-activated receptor gamma/Nuclear receptor coactivator 2 (Homo sapiens);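 note: agonist potency for raising coactivator recruitment to the receptor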
# Sequence (P37231 whole entry): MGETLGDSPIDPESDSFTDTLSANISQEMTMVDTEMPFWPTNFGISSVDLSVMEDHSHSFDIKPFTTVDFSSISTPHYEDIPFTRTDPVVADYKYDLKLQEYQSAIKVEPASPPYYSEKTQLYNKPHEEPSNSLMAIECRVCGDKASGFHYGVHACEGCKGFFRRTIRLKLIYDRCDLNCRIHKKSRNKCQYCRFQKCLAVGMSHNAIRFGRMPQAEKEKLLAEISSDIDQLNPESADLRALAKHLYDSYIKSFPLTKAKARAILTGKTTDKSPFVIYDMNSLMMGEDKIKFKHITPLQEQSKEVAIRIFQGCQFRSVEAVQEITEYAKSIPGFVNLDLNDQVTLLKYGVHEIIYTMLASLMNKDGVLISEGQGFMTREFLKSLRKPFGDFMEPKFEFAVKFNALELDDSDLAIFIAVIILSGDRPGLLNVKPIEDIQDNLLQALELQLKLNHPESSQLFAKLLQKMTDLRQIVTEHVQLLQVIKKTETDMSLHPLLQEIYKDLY
# Sequence (Q15596 whole entry, further chain): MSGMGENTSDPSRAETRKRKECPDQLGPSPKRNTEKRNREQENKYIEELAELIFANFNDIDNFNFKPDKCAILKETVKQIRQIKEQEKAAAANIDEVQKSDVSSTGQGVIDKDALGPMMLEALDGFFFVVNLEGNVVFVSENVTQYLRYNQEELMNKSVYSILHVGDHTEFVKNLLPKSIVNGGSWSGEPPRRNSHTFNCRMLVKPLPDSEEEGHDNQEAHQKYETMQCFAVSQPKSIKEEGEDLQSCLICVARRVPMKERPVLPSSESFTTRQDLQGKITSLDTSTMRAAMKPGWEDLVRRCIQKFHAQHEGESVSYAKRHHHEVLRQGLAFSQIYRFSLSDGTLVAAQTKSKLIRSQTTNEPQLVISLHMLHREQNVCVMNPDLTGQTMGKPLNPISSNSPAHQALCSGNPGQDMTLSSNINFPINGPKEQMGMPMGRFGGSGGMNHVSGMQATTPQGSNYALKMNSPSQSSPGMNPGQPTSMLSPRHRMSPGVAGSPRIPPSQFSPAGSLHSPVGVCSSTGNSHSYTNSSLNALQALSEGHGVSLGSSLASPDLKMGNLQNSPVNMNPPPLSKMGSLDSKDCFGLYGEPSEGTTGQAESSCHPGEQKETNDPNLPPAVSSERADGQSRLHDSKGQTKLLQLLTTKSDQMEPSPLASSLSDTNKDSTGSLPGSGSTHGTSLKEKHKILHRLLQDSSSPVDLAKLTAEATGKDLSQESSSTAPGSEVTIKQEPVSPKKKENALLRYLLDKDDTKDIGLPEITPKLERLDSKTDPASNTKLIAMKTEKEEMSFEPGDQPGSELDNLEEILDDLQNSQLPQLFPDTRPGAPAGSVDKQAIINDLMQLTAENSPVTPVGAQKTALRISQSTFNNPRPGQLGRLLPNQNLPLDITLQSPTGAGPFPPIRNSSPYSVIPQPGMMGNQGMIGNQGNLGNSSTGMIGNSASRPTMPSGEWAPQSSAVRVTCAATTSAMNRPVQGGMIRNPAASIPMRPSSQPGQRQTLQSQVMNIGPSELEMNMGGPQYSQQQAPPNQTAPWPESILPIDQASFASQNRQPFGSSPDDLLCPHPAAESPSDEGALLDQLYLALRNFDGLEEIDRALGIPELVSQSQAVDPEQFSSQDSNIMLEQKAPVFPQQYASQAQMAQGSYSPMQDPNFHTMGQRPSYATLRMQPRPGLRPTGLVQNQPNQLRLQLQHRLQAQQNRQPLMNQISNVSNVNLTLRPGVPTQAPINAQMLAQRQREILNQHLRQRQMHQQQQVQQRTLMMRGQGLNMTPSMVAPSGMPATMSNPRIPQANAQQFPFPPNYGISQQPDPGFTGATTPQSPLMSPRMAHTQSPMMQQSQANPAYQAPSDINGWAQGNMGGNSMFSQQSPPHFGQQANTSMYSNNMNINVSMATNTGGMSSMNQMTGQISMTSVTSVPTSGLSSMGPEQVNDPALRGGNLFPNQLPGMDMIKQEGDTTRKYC
# Assay type: functional
Activity calls are given as the source filed them.
Entries and their EC50

Consider the worked cases shown below.
> print(dat)
                    structure.smiles.string  observed.measurement
1            COc1ccc2sc3c(O)nc4ccccc4c3c2c1  12.1 µM (not active)
2  COc1cc(OC)cc(-n2nnnc2SCC(=O)Nc2ccc(C(C)=O)cc2)c1      5.13 µM (active)
3   c1ccc(-n2ncc3c2ncn2nc(-c4ccco4)nc32)cc1  16.2 µM (not active)

Data request: Can you share its EC50? I mean this compound: COc1ccc(Nc2nc(S(=O)(=O)c3ccc(C)cc3)c(Cl)s2)cc1
Data returned: > 79.4 µM (not active)

Data request: Same again, this time with O=C(Nc1ccc(N2CCCCC2)cc1)c1ccccc1
Data returned: > 79.4 µM (not active)

Data request: Same again, this time with O=C(NCc1ccc2c(c1)OCO2)Nc1ccc2nsnc2c1
Data returned: 17.8 µM (not active)

====

# System tested: Replicative DNA helicase DnaB (Mycobacterium tuberculosis)
# Sequence (P9WMR3 whole entry): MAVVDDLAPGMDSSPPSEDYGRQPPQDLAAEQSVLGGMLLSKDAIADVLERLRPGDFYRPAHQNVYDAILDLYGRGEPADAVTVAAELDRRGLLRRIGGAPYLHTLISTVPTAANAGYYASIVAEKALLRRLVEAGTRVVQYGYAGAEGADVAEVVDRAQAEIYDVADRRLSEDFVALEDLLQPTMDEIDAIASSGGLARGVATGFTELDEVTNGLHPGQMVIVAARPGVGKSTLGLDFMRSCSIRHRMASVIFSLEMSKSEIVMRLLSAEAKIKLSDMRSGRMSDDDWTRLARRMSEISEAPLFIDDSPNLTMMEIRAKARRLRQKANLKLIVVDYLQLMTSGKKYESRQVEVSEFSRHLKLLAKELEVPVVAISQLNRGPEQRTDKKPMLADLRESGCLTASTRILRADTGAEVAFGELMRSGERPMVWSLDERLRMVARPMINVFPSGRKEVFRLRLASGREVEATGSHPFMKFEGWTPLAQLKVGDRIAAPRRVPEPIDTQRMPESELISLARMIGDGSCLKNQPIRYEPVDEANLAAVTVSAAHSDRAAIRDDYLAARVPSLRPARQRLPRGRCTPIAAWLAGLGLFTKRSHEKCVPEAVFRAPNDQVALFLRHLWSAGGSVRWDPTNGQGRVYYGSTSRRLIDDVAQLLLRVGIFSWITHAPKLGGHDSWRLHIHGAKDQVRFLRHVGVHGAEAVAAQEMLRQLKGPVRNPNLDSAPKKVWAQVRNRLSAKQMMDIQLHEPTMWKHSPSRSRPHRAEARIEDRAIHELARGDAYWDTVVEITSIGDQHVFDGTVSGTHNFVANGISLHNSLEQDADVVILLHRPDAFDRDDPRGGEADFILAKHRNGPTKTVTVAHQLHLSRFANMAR
# Method notes: DnaB intein splicing inhibitors, dose response, biochemical, cell-free fluorescence (AID 449749)
# Type: functional
The source made the active and inactive calls.
Entry note: the call must match one of 1.0 = active, 0.0 = inactive

Data request: Test call for this compound, please: Cc1ccccc1-n1ncc2c([N+](=O)[O-])cc([N+](=O)[O-])cc21
Data returned: 1.0

Data request: Same again, this time with OC1=C(/C=N/c2ccc3c(c2)OCO3)CCc2ccccc21
Data returned: 0.0

Data request: Same again, this time with CC1=C/C(=N/c2c(C)n(C)n(-c3ccccc3)c2=O)C=CC1=O
Data returned: 1.0

Data request: Same again, this time with CCOC(=O)N1CCC(c2cc(=O)n(-c3ccccc3)[nH]2)CC1
Data returned: 1.0

Data request: Same again, this time with CCc1ccc2c(c1)C(NC(C)=O)C(=O)N2CCN1CCOCC1 (stereo not given)
Data returned: 1.0

Data request: Same again, this time with Cc1ccc(C(=O)C2C(c3ccc(-c4ccccc4[N+](=O)[O-])o3)NC(=O)NC2(O)C(F)(F)F)cc1 (stereo not given)
Data returned: 1.0

Data request: Same again, this time with COc1cccc(/C=N/Nc2cc(C)nc(-c3ccccc3O)n2)c1O
Data returned: 1.0

Data request: Same again, this time with Cc1n[nH]c2c1C(c1c(C)nn(-c3ccccc3)c1C)C(C#N)=C(N)O2 (stereo not given)
Data returned: 1.0

Data request: Same again, this time with CCOC1(OCC)C(c2ccc(Cl)cc2)C(C#N)(C#N)C1(OCC)OCC (stereo not given)
Data returned: 1.0

====

# System tested: Luciferin 4-monooxygenase (Photinus pyralis, UniProt P08659)
# Sequence (P08659 whole entry): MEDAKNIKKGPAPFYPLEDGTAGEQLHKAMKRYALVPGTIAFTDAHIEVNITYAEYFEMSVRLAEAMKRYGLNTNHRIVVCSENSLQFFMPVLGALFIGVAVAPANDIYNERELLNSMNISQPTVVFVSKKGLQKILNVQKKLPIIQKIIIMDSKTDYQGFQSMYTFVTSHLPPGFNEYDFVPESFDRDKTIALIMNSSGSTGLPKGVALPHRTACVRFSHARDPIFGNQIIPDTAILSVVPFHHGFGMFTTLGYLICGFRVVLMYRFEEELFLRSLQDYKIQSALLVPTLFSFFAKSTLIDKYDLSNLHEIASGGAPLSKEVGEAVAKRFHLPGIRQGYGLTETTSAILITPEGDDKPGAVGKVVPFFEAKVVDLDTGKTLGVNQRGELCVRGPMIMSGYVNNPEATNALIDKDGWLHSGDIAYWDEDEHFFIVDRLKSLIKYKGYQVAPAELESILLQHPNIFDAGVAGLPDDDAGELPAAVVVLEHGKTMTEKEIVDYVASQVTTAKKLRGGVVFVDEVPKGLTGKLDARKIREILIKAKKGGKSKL
# Method notes: firefly luciferase enzyme inhibitors, dose response, biochemical, luminescence (AID 1891)
Calls of active or inactive are those of the source.
Measurement name: EC50

Consider the worked cases shown below.
> print(dat)
                                   compound                             system.tested  measurement.name   observed.measurement
1    CCOC(=O)c1cnc2c(C#N)c(C)nn2c1-c1ccccc1  Luciferin 4-monooxygenase (Photinus pyralis, UniProt P08659)              EC50  > 112 µM (not active)
2                 CCn1c(-c2cccs2)nc2ccccc21  Luciferin 4-monooxygenase (Photinus pyralis, UniProt P08659)              EC50  > 112 µM (not active)
3               Fc1ccc(/C=N/Nc2nccnc2Cl)cc1  Luciferin 4-monooxygenase (Photinus pyralis, UniProt P08659)              EC50        8.1 µM (active)
4  Cc1ccc(-c2nc(SC(C)C(=O)N3CCOCC3)n[nH]2)cc1 (stereo unspecified)  Luciferin 4-monooxygenase (Photinus pyralis, UniProt P08659)              EC50  > 112 µM (not active)
5      Cc1ccc(/C=C/C(=O)Nc2ccccc2C(N)=O)cc1  Luciferin 4-monooxygenase (Photinus pyralis, UniProt P08659)              EC50       3.26 µM (active)

Data request: Query EC50 on Luciferin 4-monooxygenase (Photinus pyralis, UniProt P08659) for CCOCCCN1C(=O)CN(C2CCC(C)CC2)C(=O)C1c1ccc(C)cc1 (stereo unspecified)
Data returned: > 112 µM (not active)

Data request: Same again, this time with COc1ccc(CN2CCNC(=O)C2CC(=O)NCC(C)(C)N2CCOCC2)cc1C (stereo unspecified)
Data returned: > 112 µM (not active)

Data request: Same again, this time with Cc1nn(C)cc1CNC(=O)C1CCC(=O)N(CC2CCCCC2)C1 (stereo unspecified)
Data returned: > 112 µM (not active)

Data request: Same again, this time with CN(C)CCOC(=O)C1(c2ccccc2)CCCC1
Data returned: > 112 µM (not active)

Data request: Same again, this time with COc1cc2cc(C(=O)N3CCN(Cc4ccc5c(c4)OCO5)CC3)[nH]c2cc1OC
Data returned: > 112 µM (not active)

Data request: Same again, this time with CCOc1ccc(C(=O)O/N=C(\N)c2ccccn2)cc1OCC
Data returned: > 112 µM (not active)
